- Species: Homo sapiens
- assay-procedure: Selectivity ratio of IC50 for human recombinant MAOA to IC50 for human recombinant MAOB
measure: Ratio IC50
Lab note: jot the number down without any unit.

>  <structure-notation>
C=C(Br)COc1ccc2c3c(c(=O)oc2c1C)CCC3

>  <assay-value>
110

$$$$

Now for the molecule whose Ratio IC50 we want.
Lab note: "COc1c(OCC(C)=O)ccc2c3c(c(=O)oc12)CCCC3" gave Ratio IC50 of 0.033

====

As a worked illustration, we turn to IC50 data collected for Amine oxidase [flavin-containing] B (Homo sapiens, UniProt P27338).
Response body: numeric value in µM, unit text excluded.

>  <molecule>
C=C(Br)COc1ccc2c3c(c(=O)oc2c1C)CCC3

>  <experimental-system>
Amine oxidase [flavin-containing] B (Homo sapiens, UniProt P27338)
Sequence (P27338 whole entry): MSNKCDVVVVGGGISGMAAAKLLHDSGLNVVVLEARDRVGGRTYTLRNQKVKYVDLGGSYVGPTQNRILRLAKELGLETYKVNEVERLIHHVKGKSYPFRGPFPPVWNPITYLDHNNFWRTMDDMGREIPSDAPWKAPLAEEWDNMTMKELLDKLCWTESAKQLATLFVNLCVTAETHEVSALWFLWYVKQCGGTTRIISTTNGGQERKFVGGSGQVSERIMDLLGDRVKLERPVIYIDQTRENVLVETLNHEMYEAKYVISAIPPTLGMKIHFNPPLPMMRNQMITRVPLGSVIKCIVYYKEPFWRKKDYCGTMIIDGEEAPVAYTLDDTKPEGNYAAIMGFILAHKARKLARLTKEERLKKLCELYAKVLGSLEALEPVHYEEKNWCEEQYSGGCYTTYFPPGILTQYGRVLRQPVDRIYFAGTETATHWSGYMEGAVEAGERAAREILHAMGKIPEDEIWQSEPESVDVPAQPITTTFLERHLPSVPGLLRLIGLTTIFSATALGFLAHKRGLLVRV

>  <assay-value>
0.00118

$$$$
>  <molecule>
CC(=O)COc1ccc2c3c(c(=O)oc2c1C)CCC3

>  <experimental-system>
Amine oxidase [flavin-containing] B (Homo sapiens, UniProt P27338)

>  <assay-value>
0.165

$$$$
>  <molecule>
Cc1cc(=O)oc2c(C)c(OC3CCCC3=O)ccc12 (centres undefined)

>  <experimental-system>
Amine oxidase [flavin-containing] B (Homo sapiens, UniProt P27338)

>  <assay-value>
10.6

$$$$

Lab note: "Cc1cc(=O)oc2c(C)c(O)ccc12" gave IC50 of 71.3
